# test.target: Platelet-derived growth factor receptor (Homo sapiens, UniProt P09619+P16234)
# method.notes: Inhibition of human PDGF receptor phosphorylation; 0.1-0.6
# Format: protein-complex assay
assay.metric: IC50

Returns the measured IC50 for the input molecule. Input: "COc1cc2cc(-c3c[nH]c4ccccc34)cnc2cc1OC"
600 nM

* * *

# test.target: Platelet-derived growth factor receptor (Homo sapiens, UniProt P09619+P16234)
# method.notes: Inhibition of human PDGF receptor phosphorylation; 0.2-0.25
# Type: protein-complex assay
assay.metric: pIC50
Convention used: pIC50 is expressed as -log10 of the molar concentration.

Could you share which pIC50 value was measured for "c1ccc2ncc(-c3ccsc3)cc2c1" ?
6.60

* * *

# test.target: Platelet-derived growth factor receptor (Homo sapiens, UniProt P09619+P16234)
# method.notes: Inhibition of human PDGF receptor phosphorylation; 0.02-0.04
# Assay type: protein-complex assay
assay.metric: pIC50
Hey, just a heads up that pIC50 is the negative log base 10 of the concentration in molar.

Give the measured pIC50 of "COc1cc2cc(C3=CCCC3)cnc2cc1OC" .
7.40

* * *

# test.target: Platelet-derived growth factor receptor (Homo sapiens, UniProt P09619+P16234)
# method.notes: Inhibition of human PDGF receptor phosphorylation; 0.008-0.07
# Assay type: protein-complex assay
assay.metric: pIC50
Give only the number. pIC50 is defined as minus log10 of concentration in molar units.

Using the record for "COc1ccc(-c2cnc3cc(OC)c(OC)cc3c2)cn1" , report its pIC50.
7.15

* * *

# test.target: Platelet-derived growth factor receptor (Homo sapiens, UniProt P09619+P16234)
# method.notes: Inhibition of human PDGF receptor phosphorylation; 2-4
# Type: protein-complex assay
assay.metric: pIC50
Hey, just a heads up that pIC50 is the negative log base 10 of the concentration in molar.

Given the entry "Fc1cc2cc(-c3ccsc3)cnc2cc1F" , what pIC50 was observed with Platelet-derived growth factor receptor (Homo sapiens, UniProt P09619+P16234)?
5.40

* * *

# test.target: Platelet-derived growth factor receptor (Homo sapiens, UniProt P09619+P16234)
# method.notes: Inhibition of human PDGF receptor phosphorylation; 0.1-0.5
# Format: protein-complex assay
assay.metric: IC50 (nM)
Give a bare numeral; the unit nM is implied.

Please report the recorded IC50 for "COc1cc2cc(C3CCCC3)cnc2cc1OC" .
500

* * *

# test.target: Platelet-derived growth factor receptor (Homo sapiens, UniProt P09619+P16234)
# method.notes: Inhibition of human PDGF receptor phosphorylation; 20-30
# Format: protein-complex assay
assay.metric: pIC50
In simple prose, pIC50 is minus the logarithm base ten of a concentration in moles per litre.

Using the record for "COc1cc2cccnc2cc1OC" , report its pIC50.
4.52

* * *

# test.target: Platelet-derived growth factor receptor (Homo sapiens, UniProt P09619+P16234)
# method.notes: Inhibition of isolated human PDGF receptor phosphorylation
# Type: protein-complex assay
pIC50: −log10 of the molar value.
Would you mind telling me the reported pIC50 of each entry?

Looking for the measured pIC50 of "COc1ccc2cc(-c3c[nH]c4ccccc34)cnc2c1OC" , can you help?
< 4.30

Subsequent entry: "COc1ccc2cc(-c3cccnc3)cnc2c1OC"
< 4.30

For "COc1cc2cc(-c3ccccc3OC)cnc2cc1OC" then?
5.70

Consider next the compound "COc1cc2cc(-c3ccc(OCc4ccccc4)cc3)cnc2cc1OC" in the same way.
< 4.52

What would you report for "COc1cc2cc(-c3ccc(-c4ccccc4)cc3)cnc2cc1OC" ?
< 4.30

And what about the compound "COc1cc2cc([N+](=O)[O-])cnc2cc1OC" ?
< 4.30

Now consider "COc1cc2cc(-c3ccc(N(C)C)cc3)cnc2cc1OC" and answer again.
5.00

Further, for "COc1cc2cc(N)cnc2cc1OC" ?
< 4.30

Param item: "COc1ccc(-c2cnc3cc(OC)c(OC)cc3c2)c(OC)c1"
< 4.30

Lookup "COc1cc2cc(-c3sccc3Cl)cnc2cc1OC"
6.00

Next up: "COc1cc2cc(-c3cc(OC)c(OC)c(OC)c3)cnc2cc1OC"
< 4.30

One more compound: "COc1cc2cc(-c3ccc4ccccc4c3)cnc2cc1OC"
≤ 4.70

Proceed to "Fc1cccc2ncc(-c3ccsc3)cc12"
7.70

Next: "Cc1ccc(C)c2ncc(-c3ccsc3)cc12"
< 4.30

And then "COc1cc2cc(O)cnc2cc1OC" , what is it?
≤ 4.70

* * *

Can you tell me pIC50 for the items I'm about to list?
# test.target: Platelet-derived growth factor receptor (Homo sapiens, UniProt P09619+P16234)
# method.notes: Inhibition of human PDGF receptor phosphorylation; 0.07-0.15
# Type: protein-complex assay
Reminder that pIC50 means the negative base-10 logarithm of the concentration expressed in mol/L.

For the molecule "COc1cc2cc(-c3ccc([N+](=O)[O-])cc3)cnc2cc1OC" , what pIC50 is on record?
6.82

Note, next up: "COc1cc2cc(-c3ccccc3)cnc2cc1OC"
6.82

* * *

# test.target: Platelet-derived growth factor receptor (Homo sapiens, UniProt P09619+P16234)
# method.notes: Inhibition of human PDGF receptor phosphorylation; 0.007-0.03
# Format: protein-complex assay
assay.metric: pIC50
Remember the convention: pIC50 equals -log10 of concentration in molar.

Please look up its pIC50: "COc1cc2cc(-c3ccc(Cl)s3)cnc2cc1OC"
7.52

* * *

# test.target: Platelet-derived growth factor receptor (Homo sapiens, UniProt P09619+P16234)
# method.notes: Inhibition of human PDGF receptor phosphorylation; 0.003-0.005
# Format: protein-complex assay
assay.metric: pIC50
Hey, just a heads up that pIC50 is the negative log base 10 of the concentration in molar.

Could you tell me which pIC50 is on file for "COc1ccc(-c2cnc3cc(OC)c(OC)cc3c2)cc1F" ?
8.30

* * *

# test.target: Platelet-derived growth factor receptor (Homo sapiens, UniProt P09619+P16234)
# method.notes: Inhibition of human PDGF receptor phosphorylation; 0.015-0.03
# Format: protein-complex assay
assay.metric: IC50 (nM)
Please reply with the bare figure in nM and do not write the unit itself.

# lookup: IC50 of "COc1cc2cc(-c3ccc(=O)[nH]c3)cnc2cc1OC"
30

* * *

# test.target: Platelet-derived growth factor receptor (Homo sapiens, UniProt P09619+P16234)
# method.notes: Inhibition of human PDGF receptor phosphorylation; 0.1-0.8
# Type: protein-complex assay
assay.metric: pIC50
// field semantics: pIC50 = negative decimal log of concentration (mol/L)

What value of pIC50 has been reported for the following molecule? "COc1cc2cc(-c3cccnc3)cnc2cc1OC"
6.10

* * *

# test.target: Platelet-derived growth factor receptor (Homo sapiens, UniProt P09619+P16234)
# method.notes: Inhibition of human PDGF receptor phosphorylation; 0.09-0.2
# Type: protein-complex assay
assay.metric: pIC50
Just so you know, pIC50 here is -log10 of the concentration in molar units; reply with that number alone.

Please give the measured pIC50 for this compound: "COc1cc2cc(-c3ccc(F)c(F)c3)cnc2cc1OC"
6.70

* * *

# test.target: Platelet-derived growth factor receptor (Homo sapiens, UniProt P09619+P16234)
# method.notes: Inhibition of human PDGF receptor phosphorylation; 0.002-0.06
# Assay type: protein-complex assay
assay.metric: pIC50
Please note pIC50 is a logarithmic value: minus log10 of concentration in mol/L. Answer with that number alone.

I have this compound here, "COc1ccc2cc(-c3ccsc3)cnc2c1" , and I need its recorded pIC50.
7.22

* * *

# test.target: Platelet-derived growth factor receptor (Homo sapiens, UniProt P09619+P16234)
# method.notes: Inhibition of human PDGF receptor phosphorylation; 0.2-0.6
# Format: protein-complex assay
assay.metric: IC50 (µM)
Provide only the numeric value, understood in µM.

Any idea what IC50 was measured for "c1cc(-c2cnc3cc4c(cc3c2)OCO4)cs1" ?
0.6

* * *

# test.target: Platelet-derived growth factor receptor (Homo sapiens, UniProt P09619+P16234)
# method.notes: Inhibition of human PDGF receptor phosphorylation; 0.02-0.03
# Type: protein-complex assay
assay.metric: pIC50
# reply with the number alone; pIC50 is -log10 of concentration in mol/L

Reported pIC50, compound "COc1cc2cc(-c3ccc(O)cc3)cnc2cc1OC" : ____
7.52

* * *

# test.target: Platelet-derived growth factor receptor (Homo sapiens, UniProt P09619+P16234)
# method.notes: Inhibition of human PDGF receptor phosphorylation; 0.5-3
# Assay type: protein-complex assay
assay.metric: IC50 (µM)
Report as a plain number; the unit µM is understood.

// returns reported IC50 for input "COc1ccc(/C=C(\C#N)c2cccnc2)cc1OC"
3

* * *

# test.target: Platelet-derived growth factor receptor (Homo sapiens, UniProt P09619+P16234)
# method.notes: Inhibition of human PDGF receptor phosphorylation; 0.1-0.2
# Assay type: protein-complex assay
Kindly state IC50 for each of the entries shown.
A number alone suffices; assume nM.

For "CCOC(=O)c1ccc(-c2cnc3cc(OC)c(OC)cc3c2)cc1" , what is its reported IC50?
200

Consider next the compound "C(=C\c1cnc2ccccc2c1)/c1ccccc1" in the same way.
200
